B1: Cytochrome c2, P00094 (parent)
chain: MKISLTAATVAALVLAAPAFAGDAAKGEKEFNKCKTCHSIIAPDGTEIVKGAKTGPNLYGVVGRTAGTYPEFKYKDSIVALGASGFAWTEEDIATYVKDPGAFLKEKLDDKKAKTGMAFKLAKGGEDVAAYLASVVK

Variants of: B1
PROTOCOL_CONDITIONS: Rhodobacter capsulatus (strain ATCC BAA-309 / NBRC 16581 / SB1003); pH 7.5; 25 °C; GdnHCl; CD; Tris-HCl 20 mM; NaCl 40 mM; structure 1C2R; whole UniProt chain shown
READOUT_TYPE: denaturant midpoint (higher = more stable) (M)
Use M as the unit, but write only the number.

Check out these entries, answers already filled in.
- MUTANT_LABEL: "K53E"
  MEASURED: 1.6
- MUTANT_LABEL: "K33D"
  MEASURED: 1.2
- MUTANT_LABEL: "K35E K53E"
  MEASURED: 1.2

Entry K35E has what denaturant midpoint (higher = more stable)?
1.2
